Source of measurements: the supplement of paper PMC13380429

test system: A549-ACE2; experiment: drug-induced phospholipidosis relative to tamoxifen; higher = more phospholipidosis; settings: 0.3 µM; 48 h
drug-induced phospholipidosis of 2% or higher: label 1. Under 2%: label 0.

NCCc1c[nH]c2ccc(C(N)=O)cc12: label 1
O=C(OCC(O)CO)c1ccccc1Nc1ccnc2cc(Cl)ccc12 (stereo not given): label 0
Cc1cccc(/C=N/Nc2cc(N3CCOCC3)nc(OCCc3ccccn3)n2)c1: label 1

Let's switch to this compound now.
// query Determine whether measured drug-induced phospholipidosis meets or exceeds 2% for O=C1Cc2c([nH]c3ccc(Br)cc23)-c2ccccc2N1
// result label 0

---

Give measured cell viability for each item. Keep answers brief.
system: U2OS; assay: cell viability relative to DMSO; higher = less toxic; details: 72 h; 1 nM
Give bare numbers, in %.

Answered examples (3):
Cc1nc(C)c(Cl)c(O)c1Cl: 98.3
O=C(N[C@H](Cc1ccccc1)C(=O)O)c1sc2cc(F)ccc2c1Cl: 97.2
O=c1c2ccccc2[se]n1-c1ccccc1: 97.4

Provide cell viability for all items below, preserving their order.
1. CN1CCN(CC(=O)N2c3ccccc3C(=O)Nc3cccnc32)CC1 [pirenzepine]
2. CCN(CC)CCCCN1c2ccccc2Oc2ccc(Cl)cc21
3. CCOC(=O)CSCCC1NC(C(=O)O)CS1 (configuration not stated)
4. Cn1cc(C(=O)OCC2CCN(CCNS(C)(=O)=O)CC2)c2ccccc21

// result
96.1
100
101
99.7

Provide cell viability for all items below, preserving their order.
1. CO[C@@]1(NC(=O)CSC[C@@H](N)C(=O)O)C(=O)N2C(C(=O)O)=C(CSc3nnnn3C)CS[C@@H]21
2. CN1CCCCC1CCN1c2ccccc2Sc2ccc([S+](C)[O-])cc21 (configuration not stated)
3. Nc1nonc1/C(=N/O)Nc1ccc(F)c(Cl)c1
4. C=CCNC(=O)c1cc([N+](=O)[O-])cc2c(=O)[nH]c(Nc3ccc(Cl)c(Cl)c3)nc12
5. CCOC(=O)c1ccccc1OC(N)=O [ethyl-2-(carbamoyloxy)benzoate]
6. CCC1NC(=O)c2cc(S(N)(=O)=O)c(Cl)cc2N1 (configuration not stated)

// result
1. 96.6
2. 95.3
3. 93.1
4. 97.7
5. 98.6
6. 91.9

Provide cell viability for all items below, preserving their order.
1. Oc1c(Cl)cc(Cl)c(Cl)c1Cc1c(O)c(Cl)cc(Cl)c1Cl
2. Cc1cc(=O)oc2c(C=O)c(O)ccc12
3. CO[C@H]1C[C@@H]2CC[C@@H](C)[C@@](O)(O2)C(=O)C(=O)N2CCCC[C@H]2C(=O)O[C@H]([C@H](C)C[C@@H]2CC[C@H](n3cnnn3)[C@H](OC)C2)CC(=O)[C@H](C)/C=C(\C)[C@@H](O)[C@@H](OC)C(=O)[C@H](C)C[C@H](C)/C=C/C=C/C=C/1C

// result
[97.8, 107, 93.4]

Provide cell viability for all items below, preserving their order.
1. CC(C)(CC(=O)N1CCCC1)NCC(=O)N1C[C@@H](F)C[C@H]1C#N
2. Oc1cc(O)c2cc(O)c(-c3cc(O)c(O)c(O)c3)[o+]c2c1
3. CC(=O)N[C@@H](CS)C(=O)O

// result
[97.9, 103, 99.1]

Provide cell viability for all items below, preserving their order.
1. C[C@](N)(Cc1ccc(O)c(O)c1)C(=O)O
2. CCCC(=O)O[C@]1(C(=O)COC(C)=O)CC[C@H]2[C@@H]3C[C@H](F)C4=CC(=O)C=C[C@]4(C)[C@@]3(F)[C@@H](O)C[C@@]21C [difluprednate]
3. Cn1nnc(-c2ccc(-c3ccc(N4C[C@H](COP(=O)(O)O)OC4=O)cc3F)cn2)n1 [tedizolid-phosphate]

// result
[101, 99.5, 98.8]

Provide cell viability for all items below, preserving their order.
1. CCCCOc1nc(N)c2c(n1)N(Cc1cccc(CN3CCCC3)c1)CC(=O)N2
2. CCc1nc2c(C)nc(C)cc2n1-c1ccc(CCNC(=O)NS(=O)(=O)c2ccc(C)cc2)cc1
3. N#CC(c1ccccc1)(c1ccccc1)c1ccccc1Cl
4. COc1cc(OC)cc(-c2ccc3c(-c4ccc(F)cc4)n[nH]c3n2)c1

// result
100
98
101
93.5

Provide cell viability for all items below, preserving their order.
1. Nc1ccn([C@H]2C[C@H](O)[C@@H](CO)O2)c(=O)n1
2. CN(C)CCOC(=O)C(c1ccccc1)C1(O)CCCC1 (configuration not stated) [cyclopentolate]
3. O=C(OCC(COC(=O)c1cccnc1)(COC(=O)c1cccnc1)COC(=O)c1cccnc1)c1cccnc1
4. Nc1cc(C(F)(F)F)c(-c2cc(N3CCOCC3)nc(N3CCOCC3)n2)cn1

// result
102
100
102
103

Provide cell viability for all items below, preserving their order.
1. CNC(=O)c1c(I)c(C(=O)NCC(=O)Nc2c(I)c(C(=O)O)c(I)c(C(=O)NCCO)c2I)c(I)c(N(C)C(C)=O)c1I
2. CC(=O)O[C@H]1C[C@H](O[C@H]2[C@@H](O)C[C@H](O[C@H]3[C@@H](O)C[C@H](O[C@H]4CC[C@@]5(C)[C@H](CC[C@@H]6[C@@H]5C[C@@H](O)[C@]5(C)[C@@H](C7=CC(=O)OC7)CC[C@]65O)C4)O[C@@H]3C)O[C@@H]2C)O[C@H](C)[C@H]1O[C@@H]1O[C@H](CO)[C@@H](O)[C@H](O)[C@H]1O [lanatoside-C]

// result
[106, 101]

---

tested on: Calu-3; test: cell viability relative to DMSO; higher = less toxic; conditions: 72 h; 1000 nM
quantity-kind: cell viability (%)
One number for each entry, in %.

C1CCC2(CC1)CCNCC2 [4,4-pentamethylenepiperidine]: 95.1
Cc1ccc2c(c1)[C@]13CCCC[C@@H]1[C@H](C2)N(C)CC3 [dimemorfan]: 89.2
CC(=O)N(OCc1ccccc1)[C@@H]1c2cc(C#N)ccc2OC(C)(C)[C@H]1O: 103
CC[N+](CC)(CC)CCOc1cccc(OCC[N+](CC)(CC)CC)c1OCC[N+](CC)(CC)CC [gallamine-triethiodide]: 90.8

In the following, a different molecule is considered.
// query Recorded cell viability for CC1(C)Cc2c(-c3ccccc3)c(-c3ccc(Cl)cc3)c(CC(=O)O)n2C1 [licofelone] , please?
// result 96

---

tested on: HepG2; assay: cell viability relative to DMSO; higher = less toxic; details: 72 h; 100 nM
quantity-kind: cell viability (%)
Numbers only, in %.

CC(=O)O[C@H]1C[C@H](O[C@H]2[C@@H](O)C[C@H](O[C@H]3[C@@H](O)C[C@H](O[C@H]4CC[C@@]5(C)[C@H](CC[C@@H]6[C@@H]5C[C@@H](O)[C@]5(C)[C@@H](C7=CC(=O)OC7)CC[C@]65O)C4)O[C@@H]3C)O[C@@H]2C)O[C@H](C)[C@H]1O[C@@H]1O[C@H](CO)[C@@H](O)[C@H](O)[C@H]1O [lanatoside-C]: 83.3

In the following, a different molecule is considered.
// query Recorded cell viability for CO[C@H]1C[C@@H]2CC[C@@H](C)[C@@](O)(O2)C(=O)C(=O)N2CCCC[C@H]2C(=O)O[C@H]([C@H](C)C[C@@H]2CC[C@H](n3cnnn3)[C@H](OC)C2)CC(=O)[C@H](C)/C=C(\C)[C@@H](O)[C@@H](OC)C(=O)[C@H](C)C[C@H](C)/C=C/C=C/C=C/1C , please?
// result 63.1

---

test system: Caco-2; assay: cell viability relative to DMSO; higher = less toxic; settings: 72 h; 1 nM
quantity-kind: cell viability (%)
Numbers only, in %.

Answered examples (4):
COc1cc(C)c(/C=C/C(C)=C/C=C/C(C)=C/C(=O)O)c(C)c1C: 89.3
CCN(CCCOc1ccc2c(Nc3cc(CC(=O)Nc4cccc(F)c4)[nH]n3)ncnc2c1)CCOP(=O)(O)O: 99.4
COC(=O)C1=C(C)NC(C)=C(C(=O)OC/C=C/c2ccccc2)C1c1cccc([N+](=O)[O-])c1 (centres undefined): 101
Cc1cc(=O)oc2c(C=O)c(O)ccc12: 98

Provide cell viability for all items below, preserving their order.
1. COC(=O)C1=CO[C@@H](O[C@@H]2O[C@H](CO)[C@@H](O)[C@H](O)[C@H]2O)[C@@H]2C(CO)=CC[C@H]12 [geniposide]
2. Cc1nc2c([nH]1)-c1ccccc1N(C(=O)c1ccc(NC(=O)c3ccccc3-c3ccccc3)cc1)CC2
3. O=C(N[C@H](Cc1ccccc1)C(=O)O)c1sc2cc(F)ccc2c1Cl
4. N=C(N)c1ccc(N2CCN(C3CCN(CC(=O)O)CC3)CC2)cc1
5. Cc1ccc2c(c1)[C@]13CCCC[C@@H]1[C@H](C2)N(C)CC3

// result
1. 99.6
2. 97.5
3. 99.3
4. 83
5. 93.5

Provide cell viability for all items below, preserving their order.
1. CN(C)C(=O)Oc1cc(OC(=O)N(C)C)cc(C(O)CNC(C)(C)C)c1 (centres undefined)
2. CC(C)(C)c1[nH]cnc1/C=c1\[nH]c(=O)/c(=C/c2ccccc2)[nH]c1=O

// result
1: 97.7; 2: 107

Provide cell viability for all items below, preserving their order.
1. CC(=O)N[C@H]1[C@@H](OC(C)C)O[C@H](COC(C)=O)[C@@H](OC(C)=O)[C@@H]1OC(C)=O
2. C1CCC2(CC1)CCNCC2 [4,4-pentamethylenepiperidine]

// result
[106, 99.9]

// query Recorded cell viability for CN1CCC(NC(=O)c2cc(-c3c(O)cc(O)cc3Oc3ccc([N+](=O)[O-])cc3)on2)CC1 , please?
// result 99.1
